// provenance: patent US20240400659A1

# TARGET DESC: T1, Apolipoprotein E4 (human, UniProt P02649 19-317)
# T1 construct: also called ApoE4; hApoE4
# T1 sequence (P02649 19-317 C130R limits assumed): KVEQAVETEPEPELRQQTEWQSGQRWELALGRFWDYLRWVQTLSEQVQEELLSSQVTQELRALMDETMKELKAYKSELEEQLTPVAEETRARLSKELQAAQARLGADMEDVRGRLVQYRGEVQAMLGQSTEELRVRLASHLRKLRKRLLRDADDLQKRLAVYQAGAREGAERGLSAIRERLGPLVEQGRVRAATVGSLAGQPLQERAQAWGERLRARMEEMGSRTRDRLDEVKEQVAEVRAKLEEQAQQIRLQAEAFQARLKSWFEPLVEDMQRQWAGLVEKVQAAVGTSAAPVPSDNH
# ASSAY PROCEDURE: pH affinity ELISA, coated hApoE4, pH 7.4
// reported EC50 per item
Numeric only. Scale: mg/L

# BINDER, ASSAY RESULT
data = [
    ("BAP191.01-CPE-HC-R098E (antibody, V domains shown) VH: QIQLVQSGPELKKPGETVKISCKASGYTFTTAGMQWVQKMPGKGFKWIGWINTHSGEPKYAEDFKGRFAFSLETSASTAYLQISNLKNEDTATYFCAEMGGYAMDYWGQGTSVTVSS VL: DIKLTQSPSSMYASLGERVTITCKASEDINSYLSWFQQKPGKSPKTLIYRANRLVDGVPSRFSGSGSGQDYSLTISSLEYEDMGIYYCLQYDEFPLTFGAGTKLELT", 18.9),
    ("BAP191.01-CPE-LC-Y091D (antibody, V domains shown) VH: QIQLVQSGPELKKPGETVKISCKASGYTFTTAGMQWVQKMPGKGFKWIGWINTHSGEPKYAEDFKGRFAFSLETSASTAYLQISNLKNEDTATYFCARMGGYAMDYWGQGTSVTVSS VL: DIKLTQSPSSMYASLGERVTITCKASEDINSYLSWFQQKPGKSPKTLIYRANRLVDGVPSRFSGSGSGQDYSLTISSLEYEDMGIYYCLQDDEFPLTFGAGTKLELT", 0.15),
    ("BAP191.01-CPE-HC-M104E (antibody, V domains shown) VH: QIQLVQSGPELKKPGETVKISCKASGYTFTTAGMQWVQKMPGKGFKWIGWINTHSGEPKYAEDFKGRFAFSLETSASTAYLQISNLKNEDTATYFCARMGGYAEDYWGQGTSVTVSS VL: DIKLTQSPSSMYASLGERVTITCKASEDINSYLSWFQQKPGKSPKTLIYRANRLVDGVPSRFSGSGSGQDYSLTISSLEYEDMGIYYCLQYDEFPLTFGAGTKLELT", 68700),
    ("BAP191.01-CPE-HC-I051D (antibody, V domains shown, also called BAP191.01-CPE-HC-1051D) VH: QIQLVQSGPELKKPGETVKISCKASGYTFTTAGMQWVQKMPGKGFKWIGWDNTHSGEPKYAEDFKGRFAFSLETSASTAYLQISNLKNEDTATYFCARMGGYAMDYWGQGTSVTVSS VL: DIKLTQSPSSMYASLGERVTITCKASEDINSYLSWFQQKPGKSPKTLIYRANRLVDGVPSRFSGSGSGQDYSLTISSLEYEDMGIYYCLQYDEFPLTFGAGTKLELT", 4.75),
]

Could you now look at the following binder, please?
Query BAP191.01-CPE-HC-M099E (antibody, V domains shown) VH: QIQLVQSGPELKKPGETVKISCKASGYTFTTAGMQWVQKMPGKGFKWIGWINTHSGEPKYAEDFKGRFAFSLETSASTAYLQISNLKNEDTATYFCAREGGYAMDYWGQGTSVTVSS VL: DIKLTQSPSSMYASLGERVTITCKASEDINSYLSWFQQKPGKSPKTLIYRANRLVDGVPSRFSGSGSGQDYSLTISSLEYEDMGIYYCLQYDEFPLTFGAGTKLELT yields EC50 of 6890
